Values compiled from paper PMC10397247.

Target: T1, P2-AA-12HAA-S
T1 chain: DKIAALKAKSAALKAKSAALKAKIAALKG
Assay: two-hybrid library CCmax;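 also: natural log of median RNA to DNA barcode read ratio; higher means stronger binding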
Settings: mean of both orientations
value type: interaction score

| binder | interaction score |
| --- | --- |
| DEIAALEAERAALEAERAALEAEIAALEG [P1-AA-12HAA-R] | 1.44 |
| DEIAALEAESAALEAESAALEAEIAALEG [P1-AA-12HAA-S] | 1.26 |
| DEIAALEAEAAALEAEAAALEAEIAALEG [P1-AA-12HAA-A] | 1.55 |
| DEIAALEAEKAALEAEKAALEAEIAALEG [P1-AA-12HAA-K] | -0.0454 |
| DEIAALEAEEAALEAEEAALEAEIAALEG [P1-AA-12HAA-E] | 0.789 |
| DEIAALEAENAALEAENAALEAEIAALEG [P1-AA] | 1.74 |
| DEIAALEAETAALEAETAALEAEIAALEG [P1-AA-12HAA-T] | 1.33 |
| DEIAALEAEYAALEAEYAALEAEIAALEG [P1-AA-12HAA-Y] | 1.85 |
| DEIAALEAEVAALEAEVAALEAEIAALEG [P1-AA-12HAA-V] | 1.44 |
| DEIAALEAEDAALEAEDAALEAEIAALEG [P1-AA-12HAA-D] | 0.438 |

Sample DEIAALEAEIAALEAEIAALEAEIAALEG [P1-AA-12HAA-I] — what was its interaction score? 2.16

Also check DEIAALEAEHAALEAEHAALEAEIAALEG [P1-AA-12HAA-H] 1.07
